Reference source: PubChem BioAssay (NCATS)

biological target: Ubiquitin carboxyl-terminal hydrolase 1 (Homo sapiens); assay: Inhibitors of USP1/UAF1: Pilot qHTS (AID 504865); settings: purified USP1/UAF1, Ub-rhodamine cleavage fluorescence; series mostly up to 54.9 µM; also: nearly all actives have a fitted effect of over 35% in size
Records with an inconclusive call do not appear. Activity calls are given as the source filed them. Calls follow the shape of the dose curve; as a rule, active = well fitted inhibition curve with a large enough effect; inconclusive = small, poorly fitted or top-dose-only effect; inactive = flat fitted curve, though single readings scatter.
Just give me one of these, please: TRUE = active, FALSE = inactive

Solved cases below.
[
  {
    "Compound Smiles": "COc1ccc(-n2c(=O)cnc3cnc(N(C)C)nc32)cc1",
    "Category Label": "FALSE"
  },
  {
    "Compound Smiles": "CN1CCN(c2ncncc2-c2ccccc2C(F)(F)F)CC1",
    "Category Label": "FALSE"
  },
  {
    "Compound Smiles": "Cc1nc2cnc(N(C)C)nc2n(C[C@H]2CCCO2)c1=O",
    "Category Label": "FALSE"
  },
  {
    "Compound Smiles": "Cc1ccccc1-c1cncnc1NCc1cccs1",
    "Category Label": "FALSE"
  }
]

I'd appreciate the recorded outcome for COc1cccc(-c2ccc3ncnc(N4CCN(C)CC4)c3c2)c1 from this test. FALSE

What is the recorded call for this compound in the test? N#CCCn1c(=O)cnc2cnc(Oc3ccccc3)nc21 FALSE

Hey, what did the test say about COc1ccccc1CNc1nc(-c2c(C)noc2C)nc2ccccc12 ? TRUE

Entry O=c1cnc2cncnc2n1Cc1ccccc1Cl : call = ? FALSE

###

target: Cytochrome P450 3A4 (Homo sapiens) (UniProt P08684); assay: qHTS Assay for Inhibitors and Substrates of Cytochrome P450 3A4 (AID 884); conditions: recombinant CYP3A4, Luciferin-PPXE luminescence; series mostly up to 57.1 µM; also: nearly all actives have a fitted effect of over 50% in size; also: potency is read from the fitted curve at half-maximal effect
Sequence (P08684 whole entry, looked up): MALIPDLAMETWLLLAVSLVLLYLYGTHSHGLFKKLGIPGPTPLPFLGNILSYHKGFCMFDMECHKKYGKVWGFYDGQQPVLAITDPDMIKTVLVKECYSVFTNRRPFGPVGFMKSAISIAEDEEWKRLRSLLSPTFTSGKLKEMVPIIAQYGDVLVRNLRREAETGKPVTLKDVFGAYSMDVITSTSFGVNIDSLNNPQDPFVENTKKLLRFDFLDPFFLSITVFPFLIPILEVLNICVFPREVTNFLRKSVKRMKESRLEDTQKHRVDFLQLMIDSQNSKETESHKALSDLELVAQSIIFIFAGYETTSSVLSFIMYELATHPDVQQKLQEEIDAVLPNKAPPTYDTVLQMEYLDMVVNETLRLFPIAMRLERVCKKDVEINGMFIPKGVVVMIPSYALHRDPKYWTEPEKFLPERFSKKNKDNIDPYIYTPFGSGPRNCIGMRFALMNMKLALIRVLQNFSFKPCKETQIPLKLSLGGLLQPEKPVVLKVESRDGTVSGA
Inconclusive results are not listed. Calls of active or inactive are those of the source. The call rests on the fitted dose curve; in most records, active means well fitted inhibition curve with a large enough effect; inconclusive means small, poorly fitted or top-dose-only effect; inactive means no such curve, though single readings can be large or run the other way.
Readout Kind: Potency

[
  {
    "Molecule": "O=c1c(-c2ccc(F)cc2)nc2cnc(N3CCNCC3)nc2n1Cc1ccc(F)cc1",
    "Readout Kind": "Potency",
    "Value Reported": "7.94 µM (active)"
  },
  {
    "Molecule": "Cc1nc(NC2CCCCC2)c2nc(-c3ccccc3)n(CCCN3CCCCC3C)c2n1 (stereo unspecified)",
    "Readout Kind": "Potency",
    "Value Reported": "10 µM (active)"
  },
  {
    "Molecule": "COc1ccc(CNc2ncnc3ccc(-c4ccccc4CN(C)C)cc23)c(OC)c1",
    "Readout Kind": "Potency",
    "Value Reported": "7.94 µM (active)"
  },
  {
    "Molecule": "CCCn1c(C)nc2c(NC(C)CN(C)C)nc(C)nc21 (stereo unspecified)",
    "Readout Kind": "Potency",
    "Value Reported": "inactive"
  },
  {
    "Molecule": "COCCNc1nc(C)nc2c1nc(-c1ccccc1)n2C1CCN(Cc2ccccc2)C1 (stereo unspecified)",
    "Readout Kind": "Potency",
    "Value Reported": "12.6 µM (active)"
  },
  {
    "Molecule": "CN(Cc1ccco1)c1ncnc2ccc(-c3cccnc3)cc12",
    "Readout Kind": "Potency",
    "Value Reported": "3.98 µM (active)"
  }
]

Quick one: Potency of COC(=O)N1CCC2(CCN(Cc3nccs3)CC2)CC1 ? inactive

Reported Potency for Cc1nc(N2CCOCC2)c2nc(-c3ccccc3)n(CCN(C)C)c2n1 : what is it? inactive

# Potency lookup, item COc1cccc(Nc2ncc3nc(C)c(=O)n(C4CC4)c3n2)c1 6.31 µM (active)

If you can, please state the reported Potency value of CN1CCN(c2ncnc3ccc(-c4ccccc4Cl)cc23)CC1 . 5.01 µM (active)

Would you mind telling me what Potency value was observed for CN1C(=O)CCC1c1cccnc1 (stereo unspecified) ? inactive

###

test: qHTS for differential inhibitors of proliferation of Plasmodium falciparum line 7G8 (AID 1815); conditions: Plasmodium falciparum 7G8 proliferation inhibition; series mostly up to 28.7 µM;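 also: parasite growth measured after three days of incubation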
Results filed as inconclusive are left out. Active and inactive are the calls of the source. Calls come from the whole dose curve; as a rule, active = well fitted curve in the direction sought with a large enough effect; inconclusive = small, poorly fitted or top-dose-only effect, or another doubt; inactive = no such curve, though single readings can be large or run the other way.
Select the correct class. Options are t = active, f = inactive and nothing else.

[
  {
    "Molecule": "CN1CCc2cc(Cl)c(O)cc2C(c2ccccc2)C1 (stereo not given)",
    "Category Label": "t"
  }
]

In this assay, the call recorded for Nc1ncnc2c1ncn2[C@@H]1O[C@H](C(=O)NC2CC2)[C@H](O)[C@H]1O was what? f

For CC(=O)O[C@H]1C[C@@H]2CCC3C(CC[C@@]4(C)[C@H]3C[C@H]([N+]3(C)CCCCC3)[C@@H]4OC(C)=O)[C@@]2(C)C[C@@H]1[N+]1(C)CCCCC1 (stereo not given in full) , what call appears in the results of this test? f

Each molecule tested received a call. Report the one for COc1c2c(nc3ccccc13)OC(C(C)(O)CO)C2 (stereo not given) . f

Which outcome did this test record for the molecule Nc1ncnc2c1ncn2[C@@H]1O[C@H](CO)[C@H](O)[C@H]1O ? f

###

assay: qHTS drug screen for cell cycle checkpoint inhibitors in PARPi-resistant BRCA-mutant ovarian cancer cell lines. (AID 1963452); settings: PEO1/OlaR viability, CellTiter-Glo luminescence, 96 h; measured here: PEO1 parental Z-AUC; stronger effect = lower value
Readout Kind: Z-AUC
Reply with just the number.

# annotated cases, reported Z-AUC shown
[
  {
    "Molecule": "COc1cc(C)[nH]c(=O)c1CN1CCc2c(Cl)cc([C@H](OC)C3COC3)c(Cl)c2C1=O",
    "Z-AUC": 0.817
  },
  {
    "Molecule": "COC1=C2C[C@H](C)C[C@H](OC)[C@H](O)[C@@H](C)/C=C(/C)[C@H](OC(N)=O)[C@@H](OC)/C=C\\C=C(\\C)C(=O)NC(=CC1=O)C2=O",
    "Z-AUC": 0.489
  },
  {
    "Molecule": "CN(CCOc1ccc(-c2ccc3c(c2)OCO3)cc1C(C)(C)C)CC(=O)O",
    "Z-AUC": 1.02
  },
  {
    "Molecule": "CC(C)(c1ccc(OCC(O)CO)cc1)c1ccc(OCC(O)CCl)cc1 (centres undefined)",
    "Z-AUC": 0.733
  },
  {
    "Molecule": "NS(=O)(=O)Oc1ccc2c3c(c(=O)oc2c1)CCCCC3",
    "Z-AUC": 0.12
  },
  {
    "Molecule": "COc1cc(C(=O)NC(N)=Nc2ccc(C)c(NC(=O)c3ccc(-c4ccccc4)cc3)c2)cc(OC)c1OC",
    "Z-AUC": 0.261
  },
  {
    "Molecule": "CC(C)n1c(/C=C/[C@H](O)C[C@H](O)CC(=O)O)c(-c2ccc(F)cc2)c2ccccc21",
    "Z-AUC": 1.21
  },
  {
    "Molecule": "C=CC(=O)Nc1cc(N2CCN(CC)CC2)ccc1Nc1cc(N(C)C(=O)Nc2c(Cl)c(OC)cc(OC)c2Cl)ncn1",
    "Z-AUC": 0.686
  }
]

Could you now look at the following molecule, please?
Field request: Z-AUC | item: Cc1cnc(NC(=O)c2cc(Oc3cnc(C(=O)N(C)C)nc3)c3cc(C)oc3c2)cn1 -0.452

###

target: Calcium and integrin-binding protein 1 (Homo sapiens); assay: Primary qHTS for Identification of Calcium Integrin Binding Protein 1 (CIB1) Competitor (AID 1508620); conditions: CIB1-GST / FITC-alphaIIb peptide fluorescence polarization; series mostly up to 114 µM;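 also: GST tagged CIB1 binding a fluorescein labelled alphaIIb integrin peptide tracer; top concentration of the series differs between compounds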
Results filed as inconclusive are left out. Active and inactive are the calls of the source. Calls follow the shape of the dose curve; as a rule, active = well fitted inhibition curve with a large enough effect; inconclusive = small, poorly fitted or top-dose-only effect; inactive = flat fitted curve, though single readings scatter.
Readout Kind: outcome

[
  {
    "Molecule": "O=C(Cn1cc(CNC(=O)c2ccccc2)nn1)Nc1cc(C(F)(F)F)ccc1Cl",
    "outcome": "inactive"
  },
  {
    "Molecule": "Cc1ccc(OCCn2c(CCNCC3CCCCC3)nc3ccccc32)cc1",
    "outcome": "inactive"
  },
  {
    "Molecule": "Nc1ccc(C(=O)Nc2ccc(-c3nc4ccccc4[nH]3)cc2)cc1Cl",
    "outcome": "inactive"
  },
  {
    "Molecule": "CCCn1c(-c2ccc(F)cc2)nc2c(NCCN3CCOCC3)nc(C)nc21",
    "outcome": "inactive"
  },
  {
    "Molecule": "CN(c1ccccc1)c1ccc(CNc2nn3c(=O)c4ccccc4nc3s2)cc1",
    "outcome": "inactive"
  },
  {
    "Molecule": "c1nc(OCc2cnc[nH]2)c2cc(-c3ccc4c(c3)OCO4)ccc2n1",
    "outcome": "inactive"
  },
  {
    "Molecule": "COc1ccc(-c2nnc3n2N=C(c2cc(OC)ccc2OC)CS3)c(OC)c1",
    "outcome": "inactive"
  },
  {
    "Molecule": "Cc1nc(CNc2ncnc3ccc(-c4ccoc4C)cc23)cs1",
    "outcome": "inactive"
  },
  {
    "Molecule": "COc1cc(OC)cc(N2CCN(C(=S)Nc3cc(C)cc(C)n3)CC2)c1",
    "outcome": "inactive"
  },
  {
    "Molecule": "CCOc1ccccc1-c1nnc2n1N=C(c1cc(OC)ccc1OC)CS2",
    "outcome": "inactive"
  }
]

Quick one: outcome for Cc1cccc(NC(=O)c2cc(-c3ccc(C)c(C)c3)nc3ccccc23)c1 ? inactive

For COc1ccc(O)c(-c2nc3ccccc3c(=O)n2Cc2ccccc2)c1 , what is its reported outcome? inactive

Query (molecule): CCCCNc1nc(C)nc2c1nc(-c1ccccc1)n2CCN(C)C ; field requested: outcome inactive

Which outcome value belongs to Cc1ccc2nc3sc(C(=O)N4CCC(C(N)=O)CC4)cc3cc2c1 ? inactive

outcome lookup needed for CN(Cc1ccccc1)C(=O)C1CCN(Cc2cccc3ccccc23)CC1 , thanks. inactive

Value lookup for outcome; key = Cc1cnc(-c2ccccc2C2COC2)nc1NCc1ccc(-n2ccnn2)cc1 inactive

Field request: outcome | item: COc1cc(O)c(C(CC(=O)N2CCC(Cc3ccccc3)CC2)c2ccc(C)cc2)c(OC)c1 (configuration not stated) inactive

What measured outcome goes with O=C(Nc1nc(-c2ccccc2)cs1)c1ccccc1Cl ? inactive

What outcome value was documented for this molecule, COC(=O)c1ccc2c(c1)S(=O)(=O)NC2=O ? inactive

Data request, read-out outcome, for O=C(Nc1nc(-c2ccccc2)cs1)c1cccc(NS(=O)(=O)c2nccs2)c1 inactive

For N#Cc1ccc(-c2ccc(CNc3ccc(N4CCCCC4)cc3)o2)cc1 , what is its reported outcome? inactive

Quick one: outcome for Cc1occc1-c1ccc2ncnc(NCc3ncc[nH]3)c2c1 ? inactive
